Biological target: human RXFP1 (Homo sapiens)
Sequence (Q9HBX9 1-757): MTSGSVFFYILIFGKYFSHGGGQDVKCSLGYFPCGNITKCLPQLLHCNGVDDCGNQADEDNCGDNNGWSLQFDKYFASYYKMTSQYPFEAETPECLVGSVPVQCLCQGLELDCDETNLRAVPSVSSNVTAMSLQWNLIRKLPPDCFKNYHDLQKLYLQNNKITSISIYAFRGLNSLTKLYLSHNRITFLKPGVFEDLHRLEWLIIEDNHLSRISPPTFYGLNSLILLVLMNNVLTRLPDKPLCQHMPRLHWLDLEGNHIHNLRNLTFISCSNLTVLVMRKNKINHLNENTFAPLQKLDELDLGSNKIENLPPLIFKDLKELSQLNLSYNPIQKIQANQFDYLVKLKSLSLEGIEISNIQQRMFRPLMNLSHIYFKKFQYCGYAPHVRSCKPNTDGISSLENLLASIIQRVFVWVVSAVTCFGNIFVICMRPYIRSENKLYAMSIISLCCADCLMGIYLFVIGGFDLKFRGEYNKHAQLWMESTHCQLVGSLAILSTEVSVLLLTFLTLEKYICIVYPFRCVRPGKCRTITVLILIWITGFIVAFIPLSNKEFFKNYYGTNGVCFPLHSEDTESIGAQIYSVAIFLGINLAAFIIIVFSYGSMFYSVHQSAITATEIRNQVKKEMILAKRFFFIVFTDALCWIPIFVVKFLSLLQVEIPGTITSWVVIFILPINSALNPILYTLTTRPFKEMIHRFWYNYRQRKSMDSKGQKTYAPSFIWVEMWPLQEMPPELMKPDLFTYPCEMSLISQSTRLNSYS
Experiment: HTRF cAMP assay in HEK293-RXFP1 cells
Assay type: cell-based
Conditions: EC50 (cAMP response), HEK293-RXFP1 cells, 1,536-well format
metric.name: EC50
Write your answer as a measured quantity: the number, then the unit.

IN: Please give the measured EC50 for this compound: C=C[C@@]1(C)CC(=O)[C@]2(O)[C@@]3(C)[C@@H](O)CCC(C)(C)[C@@H]3[C@H](O)[C@H](OC(C)=O)[C@@]2(C)O1 [forskolin, reference compound]
OUT: 193 nM
